System: aorta
ASSAY METHOD TEXT: Isometric contraction force of isolated aortic rings precontracted by KCl
Format: cell-based, guinea pigs
CONDITIONS USED: Cavia porcellus; aortic rings precontracted by 90 mmol/l KCl, Krebs-Henseleit solution, 37°C
pEC50: −log10 of the molar value.
Outcome label depends on pEC50 relative to 5: at/above gives Fulfilled, below gives Not fulfilled.

Answered examples (7):
{"columns": ["MOLECULE", "TARGET DESC", "GROUP LABEL"],
 "data": [
  ["S [H2S, hydrogen sulfide, reference compound]", "aorta", "Not fulfilled"],
  ["CC(=O)OCCSC(=S)n1ccnc1 [CRC13HCl]", "aorta", "Fulfilled"],
  ["CSC(=S)n1ccnc1C [CRC5HCl]", "aorta", "Fulfilled"],
  ["CSC(=S)n1c(C)nc2ccccc21 [CRC4HCl]", "aorta", "Not fulfilled"],
  ["Cc1nccn1C(=S)SCc1ccccc1 [CRC9HCl]", "aorta", "Fulfilled"],
  ["S=C(SCc1ccccc1)n1ccnc1 [CRC8HCl]", "aorta", "Not fulfilled"],
  ["COc1cc(CSC(=S)n2ccnc2)cc(OC)c1OC", "aorta", "Fulfilled"]
]}

Shifting focus to the molecule that follows.
Problem: Check the entry CCOC(=O)CCSC(=S)n1ccnc1 [CRC11HCl] : does pEC50 equal or exceed 5?
Result: Not fulfilled

###

System: right atrium
ASSAY METHOD TEXT: Spontaneous (chronotropic) activity of isolated right atria
Type: cell-based, guinea pigs
CONDITIONS USED: Cavia porcellus
pEC50: −log10 of the molar value.
RECORDED METRIC: pEC50

# annotated cases, reported pEC50 shown
{"columns": ["MOLECULE", "TARGET DESC", "pEC50"],
 "data": [
  ["CSC(=S)n1c(C)nc2ccccc21 [CRC4HCl]", "right atrium", 4.25],
  ["CSC(=S)n1ccnc1C [CRC5HCl]", "right atrium", "< 4.00"]
]}

Here's the next entry for you.
Problem: Param item = CSC(=S)n1ccnc1.Cl [CRC1HCl] ; retrieve measured pEC50.
Result: < 4.00

###

Test system: right atrium
ASSAY METHOD TEXT: Spontaneous (chronotropic) activity of isolated right atria
Format: cell-based, guinea pigs
CONDITIONS USED: Cavia porcellus
Method: The COS-releasing compounds according to the present invention were tested on isolated muscle-preparations of the aorta, arteria pulmonalis, terminal ileum, papillary muscle and the right atrium (derived from guinea pigs) for their vasodilatory effect. […] Signals were recorded with a chart recorder (BD 112 Dual Channel, Kipp & Zonen) and evaluated. For statistical analyses the arithmetic means and standard error of the mean (SEM) of n experiments were calculated. […]
pEC50: −log10 of the molar value.
RECORDED METRIC: pEC50

# annotated cases, reported pEC50 shown
{"columns": ["MOLECULE", "RECORDED METRIC", "VALUE"],
 "data": [
  ["S=C(SCc1ccccc1)n1ccnc1 [CRC8HCl]", "pEC50", "< 4.00"],
  ["Cc1nccn1C(=S)SCc1ccccc1 [CRC9HCl]", "pEC50", 4.82],
  ["CCOC(=O)CCSC(=S)n1ccnc1 [CRC11HCl]", "pEC50", "< 4.00"],
  ["COc1cc(CSC(=S)n2ccnc2)cc(OC)c1OC [CRC33]", "pEC50", 4.58],
  ["CC(=O)OCCSC(=S)n1ccnc1 [CRC13HCl]", "pEC50", "< 4.00"]
]}

Consider now this further molecule.
Problem: Param item = COc1ccc(CSC(=S)n2ccnc2)cc1 [CRC10HCl] ; retrieve measured pEC50.
Result: < 4.00
